# TARGET UNDER TEST: human CCR8 (human, UniProt P51685 1-355)
# ASSAY DETAILS: cell-based or functional assay
ASSAY READOUT: hCCL1 (100 nM) residual response, Protocol #3, mAb 0.05 µg/mL (%)
Respond numerically; units are % and should not be typed.

Ask: Please supply the value of reported hCCL1 (100 nM) residual response, Protocol #3, mAb 0.05 µg/mL for the item 3-82 (antibody, human IgG1, kappa, V domains shown, humanized, human IgG1 kappa) VH: QVQLVESGGGVVQPGRSLRLSCAASGFTFSNYRMHWVRQAPGKGLEWIAVIKVKSDNYGANYADSVKGRFTISRDNSKNTLYLQMNSLRAEDTAVYYCSSPTYPGSSGFAYWGQGTLVTVSS VL: DIQMTQSPSSLSASVGDRVTITCRASQDISNYLNWYQQKPDGTVKLLIYYTSRLHTGVPSRFSGSGSGTDYTLTISNLQQEDIATYFCQQGNKFPPTFGGGTKVEINR
Reply: 93

Ask: Answer with the recorded hCCL1 (100 nM) residual response, Protocol #3, mAb 0.05 µg/mL of 3-43 (antibody, V domains shown) VH: QVQLQQPGAELVKPGASVKMSCKATGYTFTGYNMHWVKQTPGQGLEWIGAISPGKGDTSYNLKFKGKATLTTDKSSSTAYMQLSSLTSADSAVYYCARSGGTPFAYWGQGTLVTVSA VL: DVVMTQTPLSLPVSLGDQASISCRSSQSLVHSNGDTYLYWYLQKPGQSPKLLIYKVSNRFSGVPDRFSGSGSGTDFTLKINRVEAEDLGVYFCSQSTHVPYTFGGGTKLEIK only.
Reply: 102
